Collected Kb values appear next to each entry.
target: κ-opioid receptor (Homo sapiens, UniProt P41145); assay: [35S]GTP-γ-S binding, κ-antagonism; format: biochemical; settings: Ke κ-Antagonism, n=3
Sequence (P41145 whole entry): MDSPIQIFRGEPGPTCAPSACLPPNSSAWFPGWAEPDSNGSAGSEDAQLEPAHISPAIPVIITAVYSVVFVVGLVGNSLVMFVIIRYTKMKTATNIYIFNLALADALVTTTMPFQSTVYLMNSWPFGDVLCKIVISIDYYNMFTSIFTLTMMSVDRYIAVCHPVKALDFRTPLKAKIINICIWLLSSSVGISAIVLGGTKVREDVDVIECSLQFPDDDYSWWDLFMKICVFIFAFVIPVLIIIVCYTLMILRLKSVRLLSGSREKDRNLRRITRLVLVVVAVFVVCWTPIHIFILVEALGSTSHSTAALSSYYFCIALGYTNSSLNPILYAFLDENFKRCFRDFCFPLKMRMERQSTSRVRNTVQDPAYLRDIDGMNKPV
property.measured: Kb (µM)

Oc1cccc2c1O[C@@H]1CC[C@@H]3C[C@]21CCN3CCc1ccccc1 (racemic); 0.163
Oc1ccc2c(c1)[C@]13CCN(CCc4ccccc4)[C@H](CC[C@H]1O2)C3 (racemic); 0.046
Oc1ccc2c(c1)[C@]13CCN(CCc4ccccc4)[C@H](CC[C@@H]1O2)C3 [Compound 16a]; 0.1
Oc1cccc2c1O[C@H]1CC[C@@H]3C[C@]21CCN3CCc1ccccc1 (stereo in doubt) [Compound 19b]; 0.022
Oc1ccc2c(c1)[C@@]13CCN(CCc4ccccc4)[C@@H](CC[C@H]1O2)C3 [Compound 16b]; 0.103

###

target: μ-opiate receptor (Homo sapiens, UniProt P35372); assay: biochemical; conditions: Ke μ-Antagonism
Sequence (P35372 whole entry): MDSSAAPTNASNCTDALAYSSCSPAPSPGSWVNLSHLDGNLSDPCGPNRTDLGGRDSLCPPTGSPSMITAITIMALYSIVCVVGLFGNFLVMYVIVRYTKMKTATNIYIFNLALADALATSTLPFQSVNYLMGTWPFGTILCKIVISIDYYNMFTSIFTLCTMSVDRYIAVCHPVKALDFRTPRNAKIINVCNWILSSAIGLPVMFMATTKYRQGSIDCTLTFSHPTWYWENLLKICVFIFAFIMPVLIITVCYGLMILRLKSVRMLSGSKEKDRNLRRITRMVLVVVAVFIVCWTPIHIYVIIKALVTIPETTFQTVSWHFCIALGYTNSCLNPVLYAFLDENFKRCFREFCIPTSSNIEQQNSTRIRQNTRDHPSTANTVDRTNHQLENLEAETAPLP
property.measured: Kb (µM)

Oc1ccc2c(c1)[C@]13CCN(CCc4ccccc4)[C@H](CC[C@@H]1O2)C3 [Compound 16a]; 0.047
Oc1ccc2c(c1)[C@@]13CCN(CCc4ccccc4)[C@@H](CC[C@H]1O2)C3 [Compound 16b]; 0.227
Oc1cccc2c1O[C@H]1CC[C@@H]3C[C@]21CCN3CCc1ccccc1 (stereo in doubt) [Compound 19b]; 0.031
Oc1cccc2c1O[C@@H]1CC[C@@H]3C[C@]21CCN3CCc1ccccc1 (racemic); 0.274
